- experiment description: 3-week oral toxicity in BALB/c mice
- Assay type: in vivo
- condition parameters: female, BALB/c, mouse, in vivo; 3-wk period of observation, oral gavage; read-out: (sub-chronic) maximum tolerated dose

structure as smiles | MTD at 3 weeks
CCOP(=O)(OCC)OCCCCOC(=O)c1ccccc1SC/C=C(\C)CC/C=C(\C)CCC=C(C)C | ≥ 350 mg/kg/day
